Reference for the values: patent US8283352B2

ASSAY_NOTES: Solubility of lurasidone or a free form thereof in additives (Table 1), visual check
Type: physicochemical
ASSAY_CONTEXT: oil or lipid, thermodynamic from solid; additive No. 49: Arachis oil
Where a name gives a salt, the structure may show the parent alone.

COMPOUND: O=C1[C@@H]2[C@H]3CC[C@H](C3)[C@@H]2C(=O)N1C[C@@H]1CCCC[C@H]1CN1CCN(c2nsc3ccccc23)CC1 [Lurasidone, hydrochloride]
solubility at 30 min: 1000 to 10000 µg/mL

----------
ASSAY_NOTES: Solubility of lurasidone or a free form thereof in additives (Table 1), visual check
Assay type: physicochemical
ASSAY_CONTEXT: organic solvent or mixture, thermodynamic from solid; additive No. 30: Benzyl alcohol
Where a name gives a salt, the structure may show the parent alone.

COMPOUND: O=C1[C@@H]2[C@H]3CC[C@H](C3)[C@@H]2C(=O)N1C[C@@H]1CCCC[C@H]1CN1CCN(c2nsc3ccccc23)CC1 [Lurasidone, hydrochloride]
solubility at 30 min: > 200 mg/mL

----------
ASSAY_NOTES: Solubility of lurasidone or a free form thereof in additives (Table 1), visual check
Assay type: physicochemical
ASSAY_CONTEXT: aqueous with cosolvent or surfactant or cyclodextrin, thermodynamic from solid; additive No. 4: L-Arginine
Counter-ions that a name gives are not always drawn.
REPORTED_PROPERTY: solubility at 30 min

COMPOUND: O=C1[C@@H]2[C@H]3CC[C@H](C3)[C@@H]2C(=O)N1C[C@@H]1CCCC[C@H]1CN1CCN(c2nsc3ccccc23)CC1 [Lurasidone, hydrochloride]
REPORTED_PROPERTY: solubility at 30 min
VAL: < 10000 µg/mL

----------
ASSAY_NOTES: Solubility of lurasidone or a free form thereof in additives (Table 1), visual check
Type: physicochemical
ASSAY_CONTEXT: organic solvent or mixture, thermodynamic from solid; additive No. 18: Concentrated glycerin
Where a name gives a salt, the structure may show the parent alone.

COMPOUND: O=C1[C@@H]2[C@H]3CC[C@H](C3)[C@@H]2C(=O)N1C[C@@H]1CCCC[C@H]1CN1CCN(c2nsc3ccccc23)CC1 [Lurasidone, hydrochloride]
solubility at 30 min: < 10000 µg/mL

----------
ASSAY_NOTES: Solubility of lurasidone or a free form thereof in additives (Table 1), visual check
Format: physicochemical
ASSAY_CONTEXT: oil or lipid, thermodynamic from solid; additive No. 22: Medium-chain triglyceride
Structures can show the parent of a compound that is named as a salt.

MOLECULE: O=C1[C@@H]2[C@H]3CC[C@H](C3)[C@@H]2C(=O)N1C[C@@H]1CCCC[C@H]1CN1CCN(c2nsc3ccccc23)CC1 [Lurasidone, hydrochloride]
solubility at 30 min: < 10 mg/mL

----------
ASSAY_NOTES: Solubility of lurasidone or a free form thereof in additives (Table 1), visual check
Type: physicochemical
ASSAY_CONTEXT: organic solvent or mixture, thermodynamic from solid; additive No. 20: Lactic acid
Where a name gives a salt, the structure may show the parent alone.
REPORTED_PROPERTY: solubility at 30 min

MOLECULE: O=C1[C@@H]2[C@H]3CC[C@H](C3)[C@@H]2C(=O)N1C[C@@H]1CCCC[C@H]1CN1CCN(c2nsc3ccccc23)CC1 [Lurasidone, hydrochloride]
VAL: > 100 mg/mL

----------
ASSAY_NOTES: Solubility of lurasidone or a free form thereof in additives (Table 1), visual check
Assay type: physicochemical
ASSAY_CONTEXT: aqueous with cosolvent or surfactant or cyclodextrin, thermodynamic from solid; additive No. 9: β-Cyclodextrin
Where a name gives a salt, the structure may show the parent alone.
REPORTED_PROPERTY: solubility at 30 min

COMPOUND: O=C1[C@@H]2[C@H]3CC[C@H](C3)[C@@H]2C(=O)N1C[C@@H]1CCCC[C@H]1CN1CCN(c2nsc3ccccc23)CC1 [Lurasidone, hydrochloride]
REPORTED_PROPERTY: solubility at 30 min
VAL: < 10000 µg/mL

----------
ASSAY_NOTES: Solubility of lurasidone or a free form thereof in additives (Table 1), visual check
Type: physicochemical
ASSAY_CONTEXT: aqueous with cosolvent or surfactant or cyclodextrin, thermodynamic from solid; additive No. 10: Maleic acid
Structures can show the parent of a compound that is named as a salt.
REPORTED_PROPERTY: solubility at 30 min

COMPOUND: O=C1[C@@H]2[C@H]3CC[C@H](C3)[C@@H]2C(=O)N1C[C@@H]1CCCC[C@H]1CN1CCN(c2nsc3ccccc23)CC1 [Lurasidone, hydrochloride]
VAL: < 10000 µg/mL

----------
ASSAY_NOTES: Solubility of lurasidone or a free form thereof in additives (Table 1), visual check
Format: physicochemical
ASSAY_CONTEXT: aqueous with cosolvent or surfactant or cyclodextrin, thermodynamic from solid; additive No. 16: Nicotinic amide
Structures can show the parent of a compound that is named as a salt.

COMPOUND: O=C1[C@@H]2[C@H]3CC[C@H](C3)[C@@H]2C(=O)N1C[C@@H]1CCCC[C@H]1CN1CCN(c2nsc3ccccc23)CC1 [Lurasidone, hydrochloride]
solubility at 30 min: < 10000 µg/mL

----------
ASSAY_NOTES: Solubility of lurasidone or a free form thereof in additives (Table 1), visual check
Type: physicochemical
ASSAY_CONTEXT: oil or lipid, thermodynamic from solid; additive No. 52: Olive oil
Where a name gives a salt, the structure may show the parent alone.

COMPOUND: O=C1[C@@H]2[C@H]3CC[C@H](C3)[C@@H]2C(=O)N1C[C@@H]1CCCC[C@H]1CN1CCN(c2nsc3ccccc23)CC1 [Lurasidone, hydrochloride]
solubility at 30 min: < 1000 µg/mL

----------
ASSAY_NOTES: Solubility of lurasidone or a free form thereof in additives (Table 1), visual check
Type: physicochemical
ASSAY_CONTEXT: organic solvent or mixture, thermodynamic from solid; additive No. 19: Propylene glycol
Where a name gives a salt, the structure may show the parent alone.

COMPOUND: O=C1[C@@H]2[C@H]3CC[C@H](C3)[C@@H]2C(=O)N1C[C@@H]1CCCC[C@H]1CN1CCN(c2nsc3ccccc23)CC1 [Lurasidone, hydrochloride]
solubility at 30 min: 30 to 100 mg/mL

----------
ASSAY_NOTES: Solubility of lurasidone or a free form thereof in additives (Table 1), visual check
Assay type: physicochemical
ASSAY_CONTEXT: aqueous with cosolvent or surfactant or cyclodextrin, thermodynamic from solid; additive No. 13: Ethylene diamine hydrochloride
Counter-ions that a name gives are not always drawn.

COMPOUND: O=C1[C@@H]2[C@H]3CC[C@H](C3)[C@@H]2C(=O)N1C[C@@H]1CCCC[C@H]1CN1CCN(c2nsc3ccccc23)CC1 [Lurasidone, hydrochloride]
solubility at 30 min: < 10000 µg/mL

----------
ASSAY_NOTES: Solubility of lurasidone or a free form thereof in additives (Table 1), visual check
Assay type: physicochemical
ASSAY_CONTEXT: aqueous with cosolvent or surfactant or cyclodextrin, thermodynamic from solid; additive No. 6: Polysorbate 80
Where a name gives a salt, the structure may show the parent alone.

COMPOUND: O=C1[C@@H]2[C@H]3CC[C@H](C3)[C@@H]2C(=O)N1C[C@@H]1CCCC[C@H]1CN1CCN(c2nsc3ccccc23)CC1 [Lurasidone, hydrochloride]
solubility at 30 min: < 10000 µg/mL

----------
ASSAY_NOTES: Solubility of lurasidone or a free form thereof in additives (Table 1), visual check
Type: physicochemical
ASSAY_CONTEXT: aqueous buffer, thermodynamic from solid; additive No. 8: Sodium hydrogen carbonate
Where a name gives a salt, the structure may show the parent alone.
REPORTED_PROPERTY: solubility at 30 min

COMPOUND: O=C1[C@@H]2[C@H]3CC[C@H](C3)[C@@H]2C(=O)N1C[C@@H]1CCCC[C@H]1CN1CCN(c2nsc3ccccc23)CC1 [Lurasidone, hydrochloride]
REPORTED_PROPERTY: solubility at 30 min
VAL: < 10000 µg/mL

----------
ASSAY_NOTES: Solubility of lurasidone or a free form thereof in additives (Table 1), visual check
Type: physicochemical
ASSAY_CONTEXT: aqueous with cosolvent or surfactant or cyclodextrin, thermodynamic from solid; additive No. 12: Calcium bromide
Counter-ions that a name gives are not always drawn.

MOLECULE: O=C1[C@@H]2[C@H]3CC[C@H](C3)[C@@H]2C(=O)N1C[C@@H]1CCCC[C@H]1CN1CCN(c2nsc3ccccc23)CC1 [Lurasidone, hydrochloride]
solubility at 30 min: < 10000 µg/mL

----------
ASSAY_NOTES: Solubility of lurasidone or a free form thereof in additives (Table 1), visual check
Format: physicochemical
ASSAY_CONTEXT: oil or lipid, thermodynamic from solid; additive No. 51: Soybean oil
Counter-ions that a name gives are not always drawn.
REPORTED_PROPERTY: solubility at 30 min

COMPOUND: O=C1[C@@H]2[C@H]3CC[C@H](C3)[C@@H]2C(=O)N1C[C@@H]1CCCC[C@H]1CN1CCN(c2nsc3ccccc23)CC1 [Lurasidone, hydrochloride]
VAL: 1000 to 10000 µg/mL

----------
ASSAY_NOTES: Solubility of lurasidone or a free form thereof in additives (Table 1), visual check
Type: physicochemical
ASSAY_CONTEXT: organic solvent or mixture, thermodynamic from solid; additive No. 15: Polyethylene glycol 400
Counter-ions that a name gives are not always drawn.
REPORTED_PROPERTY: solubility at 30 min

COMPOUND: O=C1[C@@H]2[C@H]3CC[C@H](C3)[C@@H]2C(=O)N1C[C@@H]1CCCC[C@H]1CN1CCN(c2nsc3ccccc23)CC1 [Lurasidone, hydrochloride]
VAL: < 10000 µg/mL
